Reference source: patent US20150010928A1

Tested on: male rats
PROTOCOL_SUMMARY: Plasma metabolite profiling (GC-MS, LC-MS, SPE-LC-MS) in male rats dosed once daily over 28 days (OECD 407)
Format: in vivo, rat
SETUP_CONDITIONS: m28; high dose; Table 14b
Structures can show the parent of a compound that is named as a salt.
PARAMETER: Sphingomyelin (d18:2, C16:0)
Reply briefly: the number, and no unit.

Task: Specify reported Sphingomyelin (d18:2, C16:0) for the molecule shown: OCCNCCO
Output: 0.63

Task: Specify reported Sphingomyelin (d18:2, C16:0) for the molecule shown: C[C@]12CCC(=O)C=C1CC[C@@H]1[C@@H]2CC[C@@]2(C)[C@H]1CC[C@]2(C)O
Output: 0.37

Task: Specify reported Sphingomyelin (d18:2, C16:0) for the molecule shown: C[C@]12C=CC3=C4CCC(=O)C=C4CCC3C1CC[C@@H]2O (stereo partly drawn)
Output: 0.28

Task: Specify reported Sphingomyelin (d18:2, C16:0) for the molecule shown: C#C[C@]1(O)CC[C@H]2[C@@H]3CCc4cc(O)ccc4[C@H]3CC[C@@]21C
Output: 0.34

Task: Specify reported Sphingomyelin (d18:2, C16:0) for the molecule shown: CC/C(=C(\c1ccccc1)c1ccc(OCCN(C)C)cc1)c1ccccc1
Output: 0.6

Task: Specify reported Sphingomyelin (d18:2, C16:0) for the molecule shown: O=C(c1ccc(OCCN2CCCCC2)cc1)c1c(-c2ccc(O)cc2)sc2cc(O)ccc12 [Raloxifene Hydrochloride]
Output: 0.63
